Origin of the recorded values: ChEMBL document CHEMBL3885881

species on record: Rattus norvegicus; assay: DrugMatrix - Regimen: Daily Repeat; type: toxicity, organism-based, Sprague-Dawley; parameters: regimen Daily Repeat, gender Male, age 6-8 weeks; conditions: in vivo, po, 1500 mg/kg, 120 h, tissue Plasma, route oral GAVAGE, dose level High, time 5 day, vehicle .5 % CMC
quantity name: CHLORIDE (MEQ/L)
Use MEQ/L as the unit, but write only the number.

Some compounds with recorded CHLORIDE:
[
  {
    "compound": "CCOC(=O)[C@H](CCc1ccccc1)N[C@@H](C)C(=O)N1CCC[C@H]1C(=O)O",
    "CHLORIDE / MEQ/L": 101.67
  },
  {
    "compound": "CC(C)(Sc1cc(C(C)(C)C)c(O)c(C(C)(C)C)c1)Sc1cc(C(C)(C)C)c(O)c(C(C)(C)C)c1 [PROBUCOL]",
    "CHLORIDE / MEQ/L": 102.33
  },
  {
    "compound": "O=c1cc(-c2ccccc2)oc2ccc3ccccc3c12 [BETA-NAPHTHOFLAVONE]",
    "CHLORIDE / MEQ/L": 102.33
  },
  {
    "compound": "C[C@@H](O)[C@H]1C(=O)N2C(C(=O)O)=C(S[C@@H]3CN[C@H](C(=O)N(C)C)C3)[C@H](C)[C@H]12 [MEROPENEM]",
    "CHLORIDE / MEQ/L": 101.33
  }
]

--- query ---
Suppose we examine the compound Nc1nc2c(c(=O)[nH]1)N(C=O)C(CNc1ccc(C(=O)N[C@@H](CCC(=O)O)C(=O)O)cc1)CN2 (stereo not given in full) [LEUCOVORIN] ; what CHLORIDE value has been reported?
99.67

---

This section presents compounds with their documented EOSINOPHIL values.
species on record: Rattus norvegicus; assay: DrugMatrix - Regimen: Daily Repeat; type: toxicity, organism-based, Sprague-Dawley; design: regimen Daily Repeat, gender Male, age 6-8 weeks; conditions: in vivo, po, 0 mg/kg, 120 h, tissue Blood, route oral GAVAGE, dose level Control, time 5 day, vehicle .5 % CMC
# output: number + unit

Some compounds with recorded EOSINOPHIL:
[
  {
    "chem smiles": "CC(C)(Sc1cc(C(C)(C)C)c(O)c(C(C)(C)C)c1)Sc1cc(C(C)(C)C)c(O)c(C(C)(C)C)c1",
    "EOSINOPHIL": "1%"
  },
  {
    "chem smiles": "C[C@@H]1CC[C@H]2[C@@H](C)C(=O)O[C@@H]3O[C@@]4(C)CC[C@@H]1[C@]32OO4",
    "EOSINOPHIL": "0.33%"
  },
  {
    "chem smiles": "CCOC(=O)[C@H](CCc1ccccc1)N[C@@H](C)C(=O)N1Cc2ccccc2C[C@H]1C(=O)O",
    "EOSINOPHIL": "1%"
  }
]

--- query ---
Suppose we examine the compound COc1ccc(/C=C/C(=O)Nc2ccccc2C(=O)O)cc1OC ; what EOSINOPHIL value has been reported?
1%

---

species: Rattus norvegicus; test: DrugMatrix - Regimen: Daily Repeat; assay type: toxicity, organism-based, Sprague-Dawley; set-up: regimen Daily Repeat, gender Male, age 6-8 weeks; details: in vivo, po, 100 mg/kg, 120 h, tissue Plasma, route oral GAVAGE, dose level Low, time 5 day, vehicle .5 % CMC
quantity name: CHOLESTEROL (mg/dL)
Use mg/dL as the unit, but write only the number.

Some compounds with recorded CHOLESTEROL:
[
  {
    "compound": "Nc1nc2c(c(=O)[nH]1)N(C=O)C(CNc1ccc(C(=O)N[C@@H](CCC(=O)O)C(=O)O)cc1)CN2 (some centres undefined)",
    "units label": "mg/dL",
    "numeric value": 57.33
  },
  {
    "compound": "C#C[C@]1(O)CC[C@H]2[C@@H]3CCC4=Cc5oncc5C[C@]4(C)[C@H]3CC[C@@]21C",
    "units label": "mg/dL",
    "numeric value": 47.67
  },
  {
    "compound": "CC=Cc1ccc(O)c(OC)c1",
    "units label": "mg/dL",
    "numeric value": 58
  }
]

--- query ---
Suppose we examine the compound CC[C@]1(O)CC[C@H]2[C@@H]3CCC4=CCCC[C@@H]4[C@H]3CC[C@@]21C ; what CHOLESTEROL value has been reported?
42
